The measurements presented in this section are drawn from PubChem BioAssay AID624129.

- target_of_assay: C-C chemokine receptor type 6 (Homo sapiens) (UniProt P51684)
- assay_overview: potency against CXCR6 with APJ panel – cell-based, beta-arrestin, DiscoveRx, uHTS hits, dose response (AID 624129)
- setup_conditions: CXCR6 beta-arrestin (DiscoveRx) antagonist cell assay, CCR6, dose range 1, mean IC50 across replicates
Field: IC50. Provide a value for each of the compounds that follow.
Answers are plain numbers, in µM.

compound	target_of_assay	readout_label	result_number
Cc1ccc(S(=O)(=O)Nc2cccc3cccnc23)cc1	C-C chemokine receptor type 6 (Homo sapiens) (UniProt P51684)	IC50	8.52
N#CC(C#N)=C1C=CC=CN1/C(=C\c1ccco1)C(=O)c1ccc(Cl)cc1	C-C chemokine receptor type 6 (Homo sapiens) (UniProt P51684)	IC50	18.7
Oc1cccc2ccc(/C=C/c3c(F)cccc3Cl)nc12	C-C chemokine receptor type 6 (Homo sapiens) (UniProt P51684)	IC50	5.8
C=C(CN(C)C)C(=O)c1ccc(OC2OC(COC(C)=O)C(OC(C)=O)C(OC(C)=O)C2OC(C)=O)cc1 (stereo not given)	C-C chemokine receptor type 6 (Homo sapiens) (UniProt P51684)	IC50	23.2
Fc1ccc(Sc2nc(-c3ccccc3)nnc2C(F)(F)F)cc1	C-C chemokine receptor type 6 (Homo sapiens) (UniProt P51684)	IC50	7.42

// batch mode: one IC50 value per listed entry
1. N=C1S/C(=C\c2ccco2)C(=O)N1c1nccs1
2. O=C(CSc1nc(-c2ccco2)cc(C(F)(F)F)n1)NCCCn1ccnc1
3. CCC(C)c1ccc(O)c(NC(=S)NC(=O)c2cccnc2)c1 (stereo not given)

1. 8.52
2. 19.3
3. 12

----------
- target_of_assay: C-X-C chemokine receptor type 6 (Homo sapiens) (UniProt O00574)
- Sequence (O00574 whole entry, looked up): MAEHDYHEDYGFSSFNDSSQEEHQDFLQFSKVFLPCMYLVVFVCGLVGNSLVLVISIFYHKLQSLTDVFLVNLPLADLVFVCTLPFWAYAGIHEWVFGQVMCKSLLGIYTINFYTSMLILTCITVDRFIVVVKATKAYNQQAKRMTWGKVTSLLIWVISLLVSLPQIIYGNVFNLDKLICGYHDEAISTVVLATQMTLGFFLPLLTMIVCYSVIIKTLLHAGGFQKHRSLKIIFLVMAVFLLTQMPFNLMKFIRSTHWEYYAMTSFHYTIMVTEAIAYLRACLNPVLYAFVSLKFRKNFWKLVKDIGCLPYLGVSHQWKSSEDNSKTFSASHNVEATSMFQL
- assay_overview: potency against CXCR6 with APJ panel – cell-based, beta-arrestin, DiscoveRx, uHTS hits, dose response (AID 624129)
- setup_conditions: CXCR6 beta-arrestin (DiscoveRx) antagonist cell assay, CXCR6, run 2, dose range 1, at 79 µM (top of the series)
Field: inhibition. Provide a value for each of the compounds that follow.
One number for each entry, in %.

See these solved cases before continuing.
compound	target_of_assay	measurement_unit	result_number
Cc1ccc(-n2c(SCCN)nnc2-c2cccc(C)c2)cc1	C-X-C chemokine receptor type 6 (Homo sapiens) (UniProt O00574)	%	76.2
O=C(Nc1ccccc1Oc1ccccc1)[C@@H]1O[C@H](CO)[C@H](O)[C@H](O)[C@H]1O	C-X-C chemokine receptor type 6 (Homo sapiens) (UniProt O00574)	%	99.6
Cc1ccc(NC(=O)C2=C(c3ccccc3)S(=O)(=O)CCS2(=O)=O)cc1	C-X-C chemokine receptor type 6 (Homo sapiens) (UniProt O00574)	%	108
Cc1c(N=Nc2c(O)[nH]c(=S)[nH]c2=O)c(=O)n(-c2ccccc2)n1C	C-X-C chemokine receptor type 6 (Homo sapiens) (UniProt O00574)	%	107
Cc1ccccc1CS(=O)(=O)c1ncc(Cl)c(C(=O)Nc2ccc(F)cc2)n1	C-X-C chemokine receptor type 6 (Homo sapiens) (UniProt O00574)	%	109
O=C(NC(=S)Nc1ccccc1O)c1cncc(Br)c1	C-X-C chemokine receptor type 6 (Homo sapiens) (UniProt O00574)	%	70.2
O=C1c2cccc3c([N+](=O)[O-])ccc(c23)C(=O)N1Cc1cccnc1	C-X-C chemokine receptor type 6 (Homo sapiens) (UniProt O00574)	%	110
O=C1C=CC2C3C(=O)N(c4ccccc4)C(=O)C3C1N2Cc1ccccc1 (centres undefined)	C-X-C chemokine receptor type 6 (Homo sapiens) (UniProt O00574)	%	108

// batch mode: one inhibition value per listed entry
1. Cc1ccc(OCC(=O)NNC(=S)NC(=O)C2CC2)c(C)c1
2. O=C1c2cccc3c([N+](=O)[O-])ccc(c23)C(=O)N1c1ccccn1
3. Cc1cccc(NC(=S)NNc2ncc(C(F)(F)F)cc2Cl)c1
4. FC(F)(F)c1cnc(NNC(=S)Nc2cccnc2)c(Cl)c1
5. Oc1ccc(Cl)c2cccnc12

1: 72.3; 2: 101; 3: 109; 4: 107; 5: 17.7
